procedure_text: Release rate and longevity of pellet (Example 4)
Format: physicochemical
assay_conditions: pellet about 100 g, about 150 cm^2; 70 wt % HDPE, 20 wt % pesticide, 10 wt % carrier; 23° C.
Below, each entry is listed alongside its reported Release Rate @ 23° C..
test_readout: Release Rate @ 23° C. (μg/cm^2/day)

# compound, recorded_measurement
records = [
    ("CC1(C)C(C=C(Cl)Cl)C1C(=O)OCc1cccc(Oc2ccccc2)c1 (centres unmarked)", 12),
    ("c1ccc(-c2ccccc2)cc1", 16),
    ("CCOP(=S)(OCC)Oc1cc(C)nc(C(C)C)n1", 45),
    ("Oc1ccc(Cl)cc1Cc1cc(Cl)ccc1O", 11),
    ("Cc1c(F)c(F)c(COC(=O)[C@@H]2[C@H](/C=C(\\Cl)C(F)(F)F)C2(C)C)c(F)c1F (racemic)", 11),
]

* * *

procedure_text: Release rate and longevity of pellet (Example 4)
Format: physicochemical
assay_conditions: pellet about 100 g, about 150 cm^2; 70 wt % HDPE, 20 wt % pesticide, 10 wt % carrier; 35° C.
Source text: A pellet is made having a mass of about 100 g and a surface area of about 150 cm^2. The polymer is 70 wt % high density polyethylene, with 20 wt % pesticide and 10 wt % carrier. Comparing Table 4 to Table 3, it is evident that the encapsulated two-part construction provides longer life than the pellet.

# molecule, Longevity @ 35° C., years
rows = [
    ("Oc1ccc(Cl)cc1Cc1cc(Cl)ccc1O", 16),
    ("Cc1c(F)c(F)c(COC(=O)[C@@H]2[C@H](/C=C(\\Cl)C(F)(F)F)C2(C)C)c(F)c1F (racemic)", 16),
    ("CCOP(=S)(OCC)Oc1cc(C)nc(C(C)C)n1", 5.1),
    ("CC1(C)C(C=C(Cl)Cl)C1C(=O)OCc1cccc(Oc2ccccc2)c1 (centres unmarked)", 14),
    ("c1ccc(-c2ccccc2)cc1", 11),
]

* * *

procedure_text: Release rate and longevity of encapsulated two-part construction (Example 3)
Format: physicochemical
assay_conditions: two-part device about 100 g; inner part 60 wt % pesticide, 40 wt % carrier; outer part HDPE 120 mil; 23° C.
test_readout: Release Rate @ 23° C. (μg/cm^2/day)

# molecule, units_label, recorded_measurement
measured = [
    ("Cc1c(F)c(F)c(COC(=O)[C@@H]2[C@H](/C=C(\\Cl)C(F)(F)F)C2(C)C)c(F)c1F (racemic) [Tefluthrin]", "μg/cm^2/day", 31),
    ("Oc1ccc(Cl)cc1Cc1cc(Cl)ccc1O [Dichlorophen]", "μg/cm^2/day", 24),
    ("CCOP(=S)(OCC)Oc1cc(C)nc(C(C)C)n1 [Diazinon]", "μg/cm^2/day", 28),
    ("CC1(C)C(C=C(Cl)Cl)C1C(=O)OCc1cccc(Oc2ccccc2)c1 (centres unmarked) [Permethrin]", "μg/cm^2/day", 16),
    ("c1ccc(-c2ccccc2)cc1 [Biphenyl]", "μg/cm^2/day", 35),
]

* * *

procedure_text: Release rate and longevity of high density polyethylene sheets as a function of thickness and temperature (Example 2)
Assay type: physicochemical
assay_conditions: sheet thickness 120 mil; 35° C.; 10 wt % pesticide, 10 wt % carrier, 80 wt % HDPE
Could you please mark yes (1) for values of Longevity @ 35° C. below 6 years and no (0) for values at or above it?

# compound, class_label
rows = [
    ("CCOP(=S)(OCC)Oc1cc(C)nc(C(C)C)n1 [Diazinon]", "yes (1)"),
    ("c1ccc(-c2ccccc2)cc1 [Biphenyl]", "yes (1)"),
    ("CC1(C)C(C=C(Cl)Cl)C1C(=O)OCc1cccc(Oc2ccccc2)c1 (centres unmarked) [Permethrin]", "no (0)"),
    ("Oc1ccc(Cl)cc1Cc1cc(Cl)ccc1O [Dichlorophen]", "yes (1)"),
]

* * *

procedure_text: Release rate and longevity of high density polyethylene sheets as a function of thickness and temperature (Example 2)
Type: physicochemical
assay_conditions: sheet, 10 wt % pesticide, 10 wt % carrier, 80 wt % high density polyethylene (MA 778000); 23° C.; 60 mil
Release Rate @ 23° C. reference

# molecule, Release Rate @ 23° C. (μg/cm^2/day)
records = [
    ("Oc1ccc(Cl)cc1Cc1cc(Cl)ccc1O", 6.2),
    ("CC1(C)C(C=C(Cl)Cl)C1C(=O)OCc1cccc(Oc2ccccc2)c1 (centres unmarked)", 1.5),
    ("Cc1c(F)c(F)c(COC(=O)[C@@H]2[C@H](/C=C(\\Cl)C(F)(F)F)C2(C)C)c(F)c1F (racemic)", 1.3),
    ("c1ccc(-c2ccccc2)cc1", 3.5),
    ("CCOP(=S)(OCC)Oc1cc(C)nc(C(C)C)n1", 11.7),
]

* * *

procedure_text: Release rate and longevity of high density polyethylene sheets as a function of thickness and temperature (Example 2)
Type: physicochemical
assay_conditions: sheet thickness 240 mil; 35° C.; 10 wt % pesticide, 10 wt % carrier, 80 wt % HDPE
Label key: met means Longevity @ 35° C. under 10 years; not met means Longevity @ 35° C. of 10 years or more.

# compound, class_label
records = [
    ("Cc1c(F)c(F)c(COC(=O)[C@@H]2[C@H](/C=C(\\Cl)C(F)(F)F)C2(C)C)c(F)c1F (racemic)", "not met"),
    ("c1ccc(-c2ccccc2)cc1", "met"),
    ("CCOP(=S)(OCC)Oc1cc(C)nc(C(C)C)n1", "met"),
    ("CC1(C)C(C=C(Cl)Cl)C1C(=O)OCc1cccc(Oc2ccccc2)c1 (centres unmarked)", "not met"),
    ("Oc1ccc(Cl)cc1Cc1cc(Cl)ccc1O", "met"),
]

* * *

procedure_text: Release rate and longevity of high density polyethylene sheets as a function of thickness and temperature (Example 2)
Type: physicochemical
assay_conditions: sheet thickness 60 mil; 23° C.; 10 wt % pesticide, 10 wt % carrier, 80 wt % HDPE
Mark fulfilled for Longevity @ 23° C. under 2 years, not fulfilled if at or over.

# compound, class_label
records = [
    ("Oc1ccc(Cl)cc1Cc1cc(Cl)ccc1O [Dichlorophen]", "fulfilled"),
    ("Cc1c(F)c(F)c(COC(=O)[C@@H]2[C@H](/C=C(\\Cl)C(F)(F)F)C2(C)C)c(F)c1F (racemic) [Tefluthrin]", "not fulfilled"),
    ("CCOP(=S)(OCC)Oc1cc(C)nc(C(C)C)n1 [Diazinon]", "fulfilled"),
    ("c1ccc(-c2ccccc2)cc1 [Biphenyl]", "not fulfilled"),
    ("CC1(C)C(C=C(Cl)Cl)C1C(=O)OCc1cccc(Oc2ccccc2)c1 (centres unmarked) [Permethrin]", "not fulfilled"),
]

* * *

procedure_text: Release rates of pesticide/polymer combinations, one inch squares cut from 1/8 inch sheets (Example 1)
Type: physicochemical
assay_conditions: polymer EVA 763, injection molded 1/8 inch sheet, 10% pesticide, 3 or 7% carbon black

# compound, Release Rate
records = [
    ("Cc1c(F)c(F)c(COC(=O)[C@@H]2[C@H](/C=C(\\Cl)C(F)(F)F)C2(C)C)c(F)c1F (racemic)", "40.4 μg/cm2/day"),
    ("CC1(C)[C@H](C(=O)O[C@H](C#N)c2cccc(Oc3ccccc3)c2)[C@@H]1/C=C(\\Cl)C(F)(F)F", "20.6 μg/cm2/day"),
    ("CC1(C)C(C=C(Cl)Cl)C1C(=O)OCc1cccc(Oc2ccccc2)c1 (stereo not shown)", "28.5 μg/cm2/day"),
    ("CC1(C)C(C=C(Cl)Cl)C1C(=O)OC(C#N)c1cccc(Oc2ccccc2)c1 (stereo not shown)", "27.3 μg/cm2/day"),
]
